tested on: 349418-098-R-PDC complex spheroid viability; experiment: Anticancer human tumor 349418-098-R-PDC patient-derived lung adenocarcinoma cell line growth inhibition; details: curve of first compound; second compound 1 µM
Measure: IC50

>  <Compound>
CCN(c1cc(-c2ccc(CN3CCOCC3)cc2)cc(C(=O)NCc2c(C)cc(C)[nH]c2=O)c1C)C1CCOCC1 + NC1CCC(NC2CC2c2ccccc2)CC1

>  <IC50>
> 3 µM

$$$$
>  <Compound>
CC[C@@]1(O)C(=O)OCc2c1cc1n(c2=O)Cc2cc3c(CN(C)C)c(O)ccc3nc2-1 + NC1CC1c1ccc(-c2cccc(O)c2)cc1

>  <IC50>
0.00478 µM

$$$$

Form field IC50 for item CC1(C)CCC(CN2CCN(c3ccc(C(=O)NS(=O)(=O)c4ccc(NCC5CCOCC5)c([N+](=O)[O-])c4)c(Oc4cnc5[nH]ccc5c4)c3)CC2)=C(c2ccc(Cl)cc2)C1 + NC1CC1c1ccc(-c2cccc(O)c2)cc1 on 349418-098-R-PDC complex spheroid viability: 2.03 µM

Form field IC50 for item O=C(c1cc(Cc2n[nH]c(=O)c3ccccc23)ccc1F)N1CCN(C(=O)C2CC2)CC1 + NC1CCC(NC2CC2c2ccccc2)CC1 on 349418-098-R-PDC complex spheroid viability: 4.18 µM

Form field IC50 for item CC[C@@]1(O)C(=O)OCc2c1cc1n(c2=O)Cc2cc3c(CN(C)C)c(O)ccc3nc2-1 + NC1CCC(NC2CC2c2ccccc2)CC1 on 349418-098-R-PDC complex spheroid viability: 0.00212 µM

Form field IC50 for item CCN(c1cc(-c2ccc(CN3CCOCC3)cc2)cc(C(=O)NCc2c(C)cc(C)[nH]c2=O)c1C)C1CCOCC1 + NC1CC1c1ccc(-c2cccc(O)c2)cc1 on 349418-098-R-PDC complex spheroid viability: 0.77 µM

----------
test system: 349418-098-R-PDC complex spheroid viability; test: Anticancer human tumor 349418-098-R-PDC cell line growth inhibition; conditions: second compound 10 µM; first compound 0.000316 µM; active means viability on the fitted dose curve at most 10% of control; inactive means the rest;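 further: spheroids exposed to agents for seven days before readout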
Mark one answer only. Choices: T for active, F for inactive

Reference set, count: 5
>  <Molecule>
CC(C)CC(NC(=O)C(Cc1ccccc1)NC(=O)c1cnccn1)B(O)O (stereo not drawn) + NC1CCC(NC2CC2c2ccccc2)CC1

>  <Class>
T

$$$$
>  <Molecule>
CC(C)CC(NC(=O)C(Cc1ccccc1)NC(=O)c1cnccn1)B(O)O (stereo not drawn) + NC1CC1c1ccc(-c2cccc(O)c2)cc1

>  <Class>
T

$$$$
>  <Molecule>
CC[C@@]1(O)C(=O)OCc2c1cc1n(c2=O)Cc2cc3c(CN(C)C)c(O)ccc3nc2-1 + NC1CCC(NC2CC2c2ccccc2)CC1

>  <Class>
F

$$$$
>  <Molecule>
Cn1ncnc1C1c2n[nH]c(=O)c3cc(F)cc(c23)NC1c1ccc(F)cc1 (stereo not drawn) + NC1CC1c1ccc(-c2cccc(O)c2)cc1

>  <Class>
F

$$$$
>  <Molecule>
CC[C@@]1(O)C(=O)OCc2c1cc1n(c2=O)Cc2cc3c(CN(C)C)c(O)ccc3nc2-1 + NC1CC1c1ccc(-c2cccc(O)c2)cc1

>  <Class>
F

$$$$

Give the logged outcome of this assay for the following molecule: Cn1ncnc1C1c2n[nH]c(=O)c3cc(F)cc(c23)NC1c1ccc(F)cc1 (stereo not drawn) + NC1CCC(NC2CC2c2ccccc2)CC1
F

Give the logged outcome of this assay for the following molecule: CC(C)CC(NC(=O)CNC(=O)c1cc(Cl)ccc1Cl)B1OC(=O)CC(CC(=O)O)(C(=O)O)O1 (stereo not drawn) + NC1CCC(NC2CC2c2ccccc2)CC1
F

Give the logged outcome of this assay for the following molecule: CC(C)CC(NC(=O)CNC(=O)c1cc(Cl)ccc1Cl)B1OC(=O)CC(CC(=O)O)(C(=O)O)O1 (stereo not drawn) + NC1CC1c1ccc(-c2cccc(O)c2)cc1
F

----------
tested on: 349418-098-R-PDC complex spheroid viability; assay: Anticancer human tumor 349418-098-R-PDC cell line growth inhibition; conditions: second compound 1 µM; first compound 0.00949 µM; stronger effect = lower value;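 further: spheroids exposed to agents for seven days before readout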;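 on viability, T/C: 100% = DMSO vehicle control wells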
Measure: viability, T/C (%)
// units = %; emit number, no label

>  <Compound>
O=C(C=Cc1cccc(S(=O)(=O)Nc2ccccc2)c1)NO + NC1CCC(NC2CC2c2ccccc2)CC1

>  <viability, T/C / %>
97.1

$$$$
>  <Compound>
CCc1c2c(nc3ccc(O)cc13)-c1cc3c(c(=O)n1C2)COC(=O)[C@]3(O)CC + NC1CC1c1ccc(-c2cccc(O)c2)cc1

>  <viability, T/C / %>
1.23

$$$$
>  <Compound>
Nc1ncn(C2CC(O)C(CO)S2)c(=O)n1 (centres undefined) + NC1CCC(NC2CC2c2ccccc2)CC1

>  <viability, T/C / %>
74.3

$$$$
>  <Compound>
O=C(C=Cc1cccc(S(=O)(=O)Nc2ccccc2)c1)NO + NC1CC1c1ccc(-c2cccc(O)c2)cc1

>  <viability, T/C / %>
83.1

$$$$
>  <Compound>
NS(=O)(=O)OCC1CC(n2ccc3c(NC4CCc5ccccc54)ncnc32)CC1O (centres undefined) + NC1CCC(NC2CC2c2ccccc2)CC1

>  <viability, T/C / %>
111

$$$$
>  <Compound>
COc1cc(C2c3cc4c(cc3C(OC3OC5COC(C)OC5C(O)C3O)C3COC(=O)C23)OCO4)cc(OC)c1O (centres undefined) + NC1CCC(NC2CC2c2ccccc2)CC1

>  <viability, T/C / %>
108

$$$$
>  <Compound>
Nc1ncn(C2CC(O)C(CO)S2)c(=O)n1 (centres undefined) + NC1CC1c1ccc(-c2cccc(O)c2)cc1

>  <viability, T/C / %>
96.8

$$$$
>  <Compound>
NS(=O)(=O)OCC1CC(n2ccc3c(NC4CCc5ccccc54)ncnc32)CC1O (centres undefined) + NC1CC1c1ccc(-c2cccc(O)c2)cc1

>  <viability, T/C / %>
124

$$$$

Okay, next one:
Sample CCc1c2c(nc3ccc(O)cc13)-c1cc3c(c(=O)n1C2)COC(=O)[C@]3(O)CC + NC1CCC(NC2CC2c2ccccc2)CC1 ; viability, T/C observed: 1.89

----------
Entries and their viability, T/C values follow.
tested on: 349418-098-R-PDC complex spheroid viability; assay: Anticancer human tumor 349418-098-R-PDC cell line growth inhibition; conditions: second compound 10 µM; first compound 0.03 µM; stronger effect = lower value;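 further: spheroids exposed to agents for seven days before readout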;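 on viability, T/C: 100% = DMSO vehicle control wells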
// units = %; emit number, no label

>  <Compound>
CCc1c2c(nc3ccc(O)cc13)-c1cc3c(c(=O)n1C2)COC(=O)[C@]3(O)CC + NC1CCC(NC2CC2c2ccccc2)CC1

>  <System Name>
349418-098-R-PDC complex spheroid viability

>  <Unit Of Measure>
%

>  <viability, T/C>
1.59

$$$$

Okay, next one:
Form field viability, T/C for item NS(=O)(=O)OCC1CC(n2ccc3c(NC4CCc5ccccc54)ncnc32)CC1O (configuration not stated) + NC1CC1c1ccc(-c2cccc(O)c2)cc1 on 349418-098-R-PDC complex spheroid viability: 55.5

----------
tested on: 349418-098-R-PDC complex spheroid viability; test: Anticancer human tumor 349418-098-R-PDC cell line growth inhibition; details: second compound 3.16 µM; first compound 0.001 µM; stronger effect = lower value;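 further: spheroids exposed to agents for seven days before readout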;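 on viability, T/C: 100% = DMSO vehicle control wells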
Measure: viability, T/C (%)
// units = %; emit number, no label

>  <Molecule>
CC(C)CC(NC(=O)CNC(=O)c1cc(Cl)ccc1Cl)B1OC(=O)CC(CC(=O)O)(C(=O)O)O1 (stereo not drawn) + NC1CCC(NC2CC2c2ccccc2)CC1

>  <System Name>
349418-098-R-PDC complex spheroid viability

>  <viability, T/C (%)>
23.4

$$$$
>  <Molecule>
Cn1ncnc1C1c2n[nH]c(=O)c3cc(F)cc(c23)NC1c1ccc(F)cc1 (stereo not drawn) + NC1CC1c1ccc(-c2cccc(O)c2)cc1

>  <System Name>
349418-098-R-PDC complex spheroid viability

>  <viability, T/C (%)>
117

$$$$
>  <Molecule>
CC[C@@]1(O)C(=O)OCc2c1cc1n(c2=O)Cc2cc3c(CN(C)C)c(O)ccc3nc2-1 + NC1CC1c1ccc(-c2cccc(O)c2)cc1

>  <System Name>
349418-098-R-PDC complex spheroid viability

>  <viability, T/C (%)>
112

$$$$
>  <Molecule>
CC(C)CC(NC(=O)C(Cc1ccccc1)NC(=O)c1cnccn1)B(O)O (stereo not drawn) + NC1CC1c1ccc(-c2cccc(O)c2)cc1

>  <System Name>
349418-098-R-PDC complex spheroid viability

>  <viability, T/C (%)>
0.92

$$$$
>  <Molecule>
CC(C)CC(NC(=O)C(Cc1ccccc1)NC(=O)c1cnccn1)B(O)O (stereo not drawn) + NC1CCC(NC2CC2c2ccccc2)CC1

>  <System Name>
349418-098-R-PDC complex spheroid viability

>  <viability, T/C (%)>
1.66

$$$$
>  <Molecule>
Cn1ncnc1C1c2n[nH]c(=O)c3cc(F)cc(c23)NC1c1ccc(F)cc1 (stereo not drawn) + NC1CCC(NC2CC2c2ccccc2)CC1

>  <System Name>
349418-098-R-PDC complex spheroid viability

>  <viability, T/C (%)>
101

$$$$
>  <Molecule>
CC(C)CC(NC(=O)CNC(=O)c1cc(Cl)ccc1Cl)B1OC(=O)CC(CC(=O)O)(C(=O)O)O1 (stereo not drawn) + NC1CC1c1ccc(-c2cccc(O)c2)cc1

>  <System Name>
349418-098-R-PDC complex spheroid viability

>  <viability, T/C (%)>
38.4

$$$$

Sample CC[C@@]1(O)C(=O)OCc2c1cc1n(c2=O)Cc2cc3c(CN(C)C)c(O)ccc3nc2-1 + NC1CCC(NC2CC2c2ccccc2)CC1 ; viability, T/C observed: 83.5
